- Test Details: Pharmacokinetic profile in the rat after oral administration
- Format: in vivo, Sprague-Dawley rats
- Experimental Conditions: male, Sprague-Dawley, rat, plasma, po, 100 mg/kg
Measured Property: tmax (h)

Chemical String	Value
NCCC(=O)N[C@@H](Cc1cnc[nH]1)C(=O)O	1

----------
- Test Details: Zucker obese rat: carnosine levels in plasma, urine and renal tissue
- Type: in vivo
- Experimental Conditions: Zucker obese, rat, plasma, oral, 30 mg/kg/day

Compound	Units Symbol	concentration at 24 weeks
NCCC(=O)N[C@@H](Cc1cnc[nH]1)C(=O)O [L-CAR, β-alanyl-L-histidine]	nM	473
